# viability at 48 h annotations
test: CellTiter-Glo Luminescent Cell Viability Assay on non-tumor CHO cells; type: cell-based, Chinese hamster; conditions: Chinese hamster, CHO cells (non-tumor Chinese hamster ovary cell line); CHO cells, 48 h, 10^−5 M; mean ± SD, n = 9

COMPOUND | PROPERTY_LABEL | OBSERVED
CC[C@]12C=CCN3CC[C@@]4(c5ccc(OC)cc5N(C)[C@H]4[C@@](O)(C(=O)OC)[C@@H]1OC(=O)CCCN1CCN(Cc4ccc(C(F)(F)F)cc4)CC1)[C@@H]32 | viability at 48 h | 52.8%

Below: the item to evaluate.
Ask: Any idea what its viability at 48 h is? The compound is CCC12C=CCN3CCC4(c5cc(NC(=O)CN6CCN(C(c7ccc(F)cc7)c7ccc(F)cc7)CC6)c(OC)cc5N(C)C4C(O)(C(=O)OC)C1OC(C)=O)C32 (centres unmarked)
Reply: 1.25%
